Data provenance is PubChem BioAssay (NCATS).

# Subject Of Test: Cytochrome P450 1A2 (Homo sapiens)
# Test Description: p450-cyp1a2 (AID 410)
# Condition Notes: recombinant CYP1A2, luciferin-ME demethylation, luminescence; series mostly up to 57 µM
Records with an inconclusive call do not appear. The source made the active and inactive calls. Calls come from the whole dose curve.
# output must be one of True (active), False (inactive)

O=c1cccc2n1C[C@H]1C[C@@H]2CN(CCO)C1 ... True

Task: Status in this test for `CN1C[C@H](CO)C=C2c3cccc4[nH]cc(c34)C[C@H]21` ?
Output: True

Task: Try this molecule next: `C=C(C)[C@@H]1CN[C@H](C(=O)O)[C@H]1CC(=O)O`
Output: False

Task: Try this molecule next: CCC/C=C(\CCC)C(NP(=O)(c1ccccc1)c1ccccc1)c1ccccc1 (stereo not given)
Output: True

Task: Try this molecule next: `C[C@@H]1CCC/C=C\[C@H]2C[C@H](O)C[C@@H]2[C@H](O)/C=C\C(=O)O1`
Output: False
